The reported measurements were obtained from patent US8748435B2.

Molecular target: human GPR4 (Homo sapiens (Human), UniProt P46093)
Sequence (P46093 whole entry): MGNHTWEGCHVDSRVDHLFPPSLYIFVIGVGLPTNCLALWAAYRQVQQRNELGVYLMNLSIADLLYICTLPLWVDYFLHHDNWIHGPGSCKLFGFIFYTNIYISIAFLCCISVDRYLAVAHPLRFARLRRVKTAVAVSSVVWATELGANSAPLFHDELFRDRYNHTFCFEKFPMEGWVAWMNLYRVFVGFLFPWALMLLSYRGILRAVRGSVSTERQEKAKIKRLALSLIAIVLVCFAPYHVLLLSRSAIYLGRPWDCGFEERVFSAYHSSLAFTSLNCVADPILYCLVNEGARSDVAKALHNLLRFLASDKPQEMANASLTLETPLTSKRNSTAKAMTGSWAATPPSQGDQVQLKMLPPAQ
Test: Human GPR4 binding assay with additional human serum albumin (4% HSA)
Conditions: read-out: GPR4 4% HSA IC50; binding assay with 4% HSA
Description: Cells were grown in T175 flasks to a density of about 1×10^6 cells/mL in growth medium. The cells were harvested by centrifugation (3000 rpm for 30 minutes at 4° C.) and the pellet resuspended in ice cold buffer A (20 mM HEPES pH 7.8, 10 mM EDTA, 100 mM NaCl, 1 tab/40 mL protease inhibitor complete). […] The protein concentration is determined using the Bio Rad Protein Assay and human IgG as standard. […]
Structures can show the parent of a compound that is named as a salt.
assay readout: IC50 (nM)
Just the number please, in nM, no unit attached.

Indicate its recorded IC50; the molecule in question is CCc1nn2c(C)cc(C)nc2c1Cc1ccc(/C=C/C(=O)N2CCNCC2)cc1 [Example 18, hydrochloride] 67
